Target: TEAD3 YAP50-100 (Homo sapiens)
Sequence (Q99594 173-435 limits assumed): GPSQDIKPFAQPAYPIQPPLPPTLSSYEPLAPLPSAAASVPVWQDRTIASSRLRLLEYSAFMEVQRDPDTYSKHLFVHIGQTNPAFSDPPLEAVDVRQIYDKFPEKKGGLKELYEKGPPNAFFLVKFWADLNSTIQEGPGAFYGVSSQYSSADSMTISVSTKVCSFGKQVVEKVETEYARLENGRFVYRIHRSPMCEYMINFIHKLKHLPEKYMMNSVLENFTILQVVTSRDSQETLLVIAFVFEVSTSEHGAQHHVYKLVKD
Test: TEAD3-YAP HTRF (TR-FRET) protein-protein interaction assay
Settings: TEAD3, YAP peptide 50-100, HTRF; read-out: TEAD3 YAP50-100 HTRF combined: EC50
Description: Purified His-tagged TEAD protein (YAP Binding Domain, amino acids 217-447) is pre-incubated with Europium labelled anti-His antibody tracer (Perkin Elmer Cat #AD0110). […] After 60 minutes, the plate is read on a plate reader using TR-FRET mode with wavelengths of 665 nm/615 nm. […] The potency of compounds as YAP:TEAD or TAZ:TEAD protein-protein interaction (PPi) inhibitors is determined by an IC50 or EC50 value generated using a non-linear four parameter curve fit.
EC50 vs 80 nM: less than gives fulfilled; not less than gives not fulfilled.

Input: Item O=C(c1c(-c2cnccn2)nn2c(=O)cc(-c3ccc(CC4CCCC4)cc3)[nH]c12)N1CC(CF)C1 : EC50 beneath 80 nM, strictly?
Output: fulfilled

Input: Item CCN(C)C(=O)c1nn2c(=O)cc(-c3ccc(C4CCCCC4)cc3)[nH]c2c1C(=O)N1CC(CF)C1 : EC50 beneath 80 nM, strictly?
Output: not fulfilled

Input: Item Cc1nccnc1-c1nn2c(=O)cc(-c3ccc(-c4ccccc4)cc3)[nH]c2c1C(=O)N1CC(CF)C1 : EC50 beneath 80 nM, strictly?
Output: not fulfilled

Input: Item C[C@@H]1[C@H](CF)CN1C(=O)c1c(-c2ncccn2)nn2c(=O)cc(-c3ccc(CC4CCCC4)cc3)[nH]c12 (single isomer, unassigned) [Isomer B, Example 43] : EC50 beneath 80 nM, strictly?
Output: not fulfilled

Input: Item O=C(c1c(-c2ncccn2)nn2c(=O)cc(-c3ccc(C4CCCCC4)cc3)[nH]c12)N1CC(CF)C1 : EC50 beneath 80 nM, strictly?
Output: fulfilled

----------
Molecular target: TEAD4 TAZ (amino acids 13-57) (Homo sapiens, UniProt Q15561)
Sequence (Q15561 217-434 limits assumed): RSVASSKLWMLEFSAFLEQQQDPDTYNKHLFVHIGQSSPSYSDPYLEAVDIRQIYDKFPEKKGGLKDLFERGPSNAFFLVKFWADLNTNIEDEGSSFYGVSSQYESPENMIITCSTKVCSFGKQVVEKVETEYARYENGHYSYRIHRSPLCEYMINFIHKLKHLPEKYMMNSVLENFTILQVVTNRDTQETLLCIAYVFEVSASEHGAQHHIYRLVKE
Test: TEAD4-TAZ HTRF (TR-FRET) protein-protein interaction assay
Type: binding
Settings: TEAD4, TAZ peptide, HTRF
Returns one of True or False; True when TEAD4 TAZ HTRF combined: Max % Inhibition is >= 50%.

Input: Does O=C(c1c(-c2ccccn2)nn2c(=O)cc(-c3ccc(C4CCCCC4)cc3)[nH]c12)N1CC(CF)C1 have a reported TEAD4 TAZ HTRF combined: Max % Inhibition of at least 50%?
Output: False

Input: Does Cc1nccnc1-c1nn2c(=O)cc(-c3ccc(OC(c4ccccc4)C(F)(F)F)cc3)[nH]c2c1C(=O)N1C[C@H](CF)[C@@H]1C (single isomer, unassigned) [Final product obtained using Enantiomer B from Step 1, Example 56] have a reported TEAD4 TAZ HTRF combined: Max % Inhibition of at least 50%?
Output: True

Input: Does O=C(c1c(-c2ncccn2)nn2c(=O)cc(-c3ccc(C4CCCCC4)c(F)c3)[nH]c12)N1CC(CF)C1 have a reported TEAD4 TAZ HTRF combined: Max % Inhibition of at least 50%?
Output: False

Input: Does O=C(c1c(C2CNCCO2)nn2c(=O)cc(-c3ccc(C4CCCCC4)cc3)[nH]c12)N1CC(CF)C1 (single isomer, unassigned) [Enantiomer A, Example 63] have a reported TEAD4 TAZ HTRF combined: Max % Inhibition of at least 50%?
Output: False

Input: Does C[C@@H](CO)c1nn2c(=O)cc(-c3ccc(C4CCCCC4)cc3)[nH]c2c1C(=O)N1CC(CF)C1 (single isomer, unassigned) [Enantiomer B, Example 55] have a reported TEAD4 TAZ HTRF combined: Max % Inhibition of at least 50%?
Output: False

Input: Does CC(C)c1ccnc(-c2nn3c(=O)cc(-c4ccc(C5CCCCC5)cc4)[nH]c3c2C(=O)N2CC(CF)C2)n1 have a reported TEAD4 TAZ HTRF combined: Max % Inhibition of at least 50%?
Output: True

Input: Does C[C@H]1[C@@H](CF)CN1C(=O)c1c(-c2cnccn2)nn2c(=O)cc(-c3ccc(C4CCCCC4)cc3)[nH]c12 (single isomer, unassigned) [Isomer A, Example 39] have a reported TEAD4 TAZ HTRF combined: Max % Inhibition of at least 50%?
Output: True

Input: Does Cc1nccnc1-c1nn2c(=O)cc(-c3ccc(O[C@@H](c4ccccc4)C(F)(F)F)cc3)[nH]c2c1C(=O)N1CC(CF)C1 have a reported TEAD4 TAZ HTRF combined: Max % Inhibition of at least 50%?
Output: True

Input: Does C[C@@H]1[C@H](CF)CN1C(=O)c1c(-c2ncccn2)nn2c(=O)cc(-c3ccc(C4CCCCC4)cc3)[nH]c12 (single isomer, unassigned) [Isomer A, Example 40] have a reported TEAD4 TAZ HTRF combined: Max % Inhibition of at least 50%?
Output: True

Input: Does O=C(c1c(-c2cnccn2)nn2c(=O)cc(-c3ccc(C4CCCCC4)cc3)[nH]c12)N1CC(CF)C1 have a reported TEAD4 TAZ HTRF combined: Max % Inhibition of at least 50%?
Output: False

Input: Does Cc1c(-c2nn3c(=O)cc(-c4ccc(C5CCCCC5)cc4)[nH]c3c2C(=O)N2CC(CF)C2)ncn1C have a reported TEAD4 TAZ HTRF combined: Max % Inhibition of at least 50%?
Output: False

Input: Does CCc1ccnc(-c2nn3c(=O)cc(-c4ccc(C5CCCCC5)cc4)[nH]c3c2C(=O)N2CC(CF)C2)n1 have a reported TEAD4 TAZ HTRF combined: Max % Inhibition of at least 50%?
Output: True

Input: Does COc1ccnc(-c2nn3c(=O)cc(-c4ccc(C5CCCCC5)cc4)[nH]c3c2C(=O)N2CC(CF)C2)n1 have a reported TEAD4 TAZ HTRF combined: Max % Inhibition of at least 50%?
Output: True

Input: Does Cc1cncc(-c2nn3c(=O)cc(-c4ccc(C5CCCCC5)cc4)[nH]c3c2C(=O)N2CC(CF)C2)n1 have a reported TEAD4 TAZ HTRF combined: Max % Inhibition of at least 50%?
Output: False

Input: Does CCCCCCC/C=C/c1cc(=O)n2nc(-c3nccnc3C)c(C(=O)N3C[C@H](CF)[C@@H]3C)c2[nH]1 have a reported TEAD4 TAZ HTRF combined: Max % Inhibition of at least 50%?
Output: True

Input: Does Cc1nccnc1-c1nn2c(=O)cc(-c3ccc(C4(F)CCCCC4)cc3)[nH]c2c1C(=O)N1CC(CF)C1 have a reported TEAD4 TAZ HTRF combined: Max % Inhibition of at least 50%?
Output: False

Input: Does Cc1nccnc1-c1nn2c(=O)cc(-c3ccc(C4CCC(F)(F)CC4)cc3)[nH]c2c1C(=O)N1CC(CF)C1 have a reported TEAD4 TAZ HTRF combined: Max % Inhibition of at least 50%?
Output: False

Input: Does O=C(c1c(-c2cnccn2)nn2c(=O)cc(-c3ccc(C4CCCCC4)c(F)c3)[nH]c12)N1CC(CF)C1 have a reported TEAD4 TAZ HTRF combined: Max % Inhibition of at least 50%?
Output: False

Input: Does Cc1nccnc1-c1nn2c(=O)cc(-c3ccc(C(F)(F)C4CCCC4)cc3)[nH]c2c1C(=O)N1CC(CF)C1 have a reported TEAD4 TAZ HTRF combined: Max % Inhibition of at least 50%?
Output: False

----------
Biological target: TEAD1 YAP50-100 (Homo sapiens, UniProt P28347)
Sequence (P28347 167-426 limits assumed): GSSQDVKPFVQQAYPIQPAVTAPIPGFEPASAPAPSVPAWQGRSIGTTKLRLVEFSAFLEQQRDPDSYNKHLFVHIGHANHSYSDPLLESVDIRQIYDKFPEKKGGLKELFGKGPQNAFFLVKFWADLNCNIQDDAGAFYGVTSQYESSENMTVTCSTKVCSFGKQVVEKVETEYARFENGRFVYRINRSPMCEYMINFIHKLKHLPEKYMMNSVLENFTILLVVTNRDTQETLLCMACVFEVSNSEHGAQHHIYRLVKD
Test: TEAD1-YAP HTRF (TR-FRET) protein-protein interaction assay
Type: binding
Details: TEAD1, YAP peptide 50-100, HTRF
Task for the reader: assign each of the following compounds its reported TEAD1 YAP50-100 HTRF combined: Max % Inhibition.

Reported TEAD1 YAP50-100 HTRF combined: Max % Inhibition ( Cc1nccnc1-c1nn2c(=O)cc(-c3ccc(C4CCCC4)cc3)[nH]c2c1C(=O)N1C[C@H](CF)[C@@H]1C ) = 79.0%

Reported TEAD1 YAP50-100 HTRF combined: Max % Inhibition ( CCCCCCCCCc1cc(=O)n2nc(-c3nccnc3C)c(C(=O)N3C[C@H](CF)[C@@H]3C)c2[nH]1 ) = 53.0%

Reported TEAD1 YAP50-100 HTRF combined: Max % Inhibition ( Cc1nccnc1-c1nn2c(=O)cc(-c3ccc(C4(F)CCCCC4)cc3)[nH]c2c1C(=O)N1CC(CF)C1 ) = 68.0%

Reported TEAD1 YAP50-100 HTRF combined: Max % Inhibition ( O=C(c1c(-c2ccccn2)nn2c(=O)cc(-c3ccc(C4CCCCC4)cc3)[nH]c12)N1CC(CF)C1 ) = 70.0%

Reported TEAD1 YAP50-100 HTRF combined: Max % Inhibition ( C[C@H]1[C@@H](CF)CN1C(=O)c1c(-c2cnccn2)nn2c(=O)cc(-c3ccc(C4CCCCC4)cc3)[nH]c12 (single isomer, unassigned) [Isomer A, Example 39] ) = 76.0%

Reported TEAD1 YAP50-100 HTRF combined: Max % Inhibition ( CCCCCCC/C=C/c1cc(=O)n2nc(-c3nccnc3C)c(C(=O)N3C[C@H](CF)[C@@H]3C)c2[nH]1 ) = 58.0%

Reported TEAD1 YAP50-100 HTRF combined: Max % Inhibition ( Cc1nccnc1-c1nn2c(=O)cc(-c3ccc(C4CCC(F)(F)CC4)cc3)[nH]c2c1C(=O)N1CC(CF)C1 ) = 72.0%

Ref: patent US12692269B2
